# TARGET_OR_SYSTEM: F508del (Homo sapiens, UniProt P13569, DEL508-508)
# Construct: expressed in transfected cells
# Sequence (P13569 with tags, fused parts or gaps DEL508-508): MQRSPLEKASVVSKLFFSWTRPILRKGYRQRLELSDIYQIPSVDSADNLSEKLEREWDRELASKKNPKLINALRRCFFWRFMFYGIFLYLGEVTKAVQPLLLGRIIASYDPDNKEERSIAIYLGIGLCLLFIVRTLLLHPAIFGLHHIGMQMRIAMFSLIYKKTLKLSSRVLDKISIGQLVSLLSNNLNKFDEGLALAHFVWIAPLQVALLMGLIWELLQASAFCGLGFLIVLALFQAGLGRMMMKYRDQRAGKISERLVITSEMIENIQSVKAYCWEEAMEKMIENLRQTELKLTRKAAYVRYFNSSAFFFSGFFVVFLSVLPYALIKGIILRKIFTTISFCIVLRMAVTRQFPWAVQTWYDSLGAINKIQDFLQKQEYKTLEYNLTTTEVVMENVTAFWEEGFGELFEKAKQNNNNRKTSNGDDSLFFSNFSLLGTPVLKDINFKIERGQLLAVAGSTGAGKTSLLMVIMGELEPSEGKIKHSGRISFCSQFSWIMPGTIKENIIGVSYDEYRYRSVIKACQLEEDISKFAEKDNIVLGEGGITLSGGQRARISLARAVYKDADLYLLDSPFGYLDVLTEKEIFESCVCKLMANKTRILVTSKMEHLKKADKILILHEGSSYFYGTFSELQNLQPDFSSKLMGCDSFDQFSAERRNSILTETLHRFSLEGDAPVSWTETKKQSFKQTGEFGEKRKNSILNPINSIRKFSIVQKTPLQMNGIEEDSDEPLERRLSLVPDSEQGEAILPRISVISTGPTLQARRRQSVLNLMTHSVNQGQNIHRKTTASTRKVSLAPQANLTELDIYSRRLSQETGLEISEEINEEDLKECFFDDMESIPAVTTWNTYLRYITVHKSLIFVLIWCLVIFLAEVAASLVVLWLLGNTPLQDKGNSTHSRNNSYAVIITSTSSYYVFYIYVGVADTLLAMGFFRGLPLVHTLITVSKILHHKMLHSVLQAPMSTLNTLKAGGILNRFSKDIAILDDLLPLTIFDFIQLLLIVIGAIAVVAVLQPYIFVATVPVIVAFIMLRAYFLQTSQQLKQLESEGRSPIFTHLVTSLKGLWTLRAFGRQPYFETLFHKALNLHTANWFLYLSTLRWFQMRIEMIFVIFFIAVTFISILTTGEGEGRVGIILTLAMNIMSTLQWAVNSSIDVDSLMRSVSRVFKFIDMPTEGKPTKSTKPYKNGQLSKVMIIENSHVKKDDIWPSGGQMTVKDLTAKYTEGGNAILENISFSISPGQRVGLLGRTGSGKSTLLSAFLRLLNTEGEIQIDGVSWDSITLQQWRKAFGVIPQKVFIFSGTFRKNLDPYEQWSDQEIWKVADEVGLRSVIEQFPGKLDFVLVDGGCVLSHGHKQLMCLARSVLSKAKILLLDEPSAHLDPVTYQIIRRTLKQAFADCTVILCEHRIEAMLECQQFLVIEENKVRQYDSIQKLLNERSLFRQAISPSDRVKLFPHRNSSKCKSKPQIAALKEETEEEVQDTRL
# PROTOCOL_NOTES: 3T3 assay: membrane potential optical assay for F508del correction in NIH 3T3 cells
# Type: cell-based
# TEST_SETTINGS: NIH3T3; Table 8; read-out: 3T3 Max Activity
Some molecules, each annotated with its measured Emax.

# example entries with known answers
CCCC[C@@H]1Oc2cc(-c3c(C)cccc3C)nc(n2)NS(=O)(=O)c2cccc(c2)C(=O)N[C@@H]1CC1CCCCC1 (stereo in doubt) : > 60%
CC1=C(c2cc3nc(n2)NS(=O)(=O)c2cccc(c2)C(=O)N[C@H](CC(C)C)CO3)C(C)CCC1 (stereo partly drawn) : > 60%

Next:
Prompt: I would be grateful if you could share the reported Emax for Cc1cccc(C)c1-c1cc2nc(n1)NS(=O)(=O)c1cccc(c1)C(=O)NC[C@@H](c1ccc(C(F)(F)F)cc1)O2 (stereo in doubt) .
Completion: > 60%

Sourced from patent US20230382924A1
